Taken from patent US20190002429A1.

# Test system: Staphylococcus aureus ATCC29213
# Method summary: MIC against S. aureus ATCC29213
# Assay type: cell-based
Measured metric: Minimum inhibition concentration (MIC) (µg/mL)

# Compound, U, Lt gt eq, Reported result
data = [
    ("COc1c(OCC(=O)O)cc2oc3cc(O)c(CC=C(C)C)c(O)c3c(=O)c2c1CC=C(C)C [AM-072]", "µg/mL", "=", 6.25),
    ("COc1c(OCCCCN2CCOCC2)cc2oc3cc(OCCCCN4CCOCC4)c(CC=C(C)C)c(O)c3c(=O)c2c1CC=C(C)C [AM-009]", "µg/mL", ">", 25),
    ("COc1c(OCCCCBr)cc2oc3cc(OCCCCBr)c(CC=C(C)C)c(O)c3c(=O)c2c1CC=C(C)C [AM-005]", "µg/mL", ">", 50),
    ("COc1c(O)cc2oc3cc(OCC(=O)O)c(CC=C(C)C)c(O)c3c(=O)c2c1CC=C(C)C [AM-071]", "µg/mL", "=", 12.5),
]
